Target: T1, human GITR (human, UniProt Q9Y5U5 26-241)
T1 sequence: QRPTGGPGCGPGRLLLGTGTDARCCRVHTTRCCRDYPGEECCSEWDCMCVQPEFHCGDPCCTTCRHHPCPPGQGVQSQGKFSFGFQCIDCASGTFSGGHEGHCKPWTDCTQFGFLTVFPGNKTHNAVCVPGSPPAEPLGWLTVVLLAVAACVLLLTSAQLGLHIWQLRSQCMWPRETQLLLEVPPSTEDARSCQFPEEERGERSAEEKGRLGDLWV
Test: cell-based or functional assay
Consider the reported Proliferation EC50 of an entry and match it to a band in range A = under 0.01 mg/L, range B = from 0.01 mg/L up to 0.03 mg/L, range C = 0.03 mg/L and over

{"binder": "5H7v7 (antibody, human IgG1, kappa, V domains shown, Engineered variant; also called Ab29; SS-16917) VH: QVQLQESGPGLVKPSETLSLTCTVSGGSISSGGYFWSWIRQPPGKGLEWIGYIYYSGTTYYNPSLKSRVTISIDTSKNQFSLKLSSVTAADTAVYYCARDLFYYDTSGPRGFEPWGQGTLVTVSS VL: EIVLTQSPGTLSLSPGERATLSCRASQTVSSNYLAWYQQKPGQAPRLLIYGSSTRATGIPDRFSGSGSGTDFTLTISRLEPEDFAVYYCQQYDSSPWTFGQGTKVEIKR", "classification": "range B"}
{"binder": "5H7v11 (antibody, human IgG1, kappa, V domains shown) VH: QVQLQESGPGLVKPSETLSLTCTVSGGSISSGGYFWSWIRQPPGKGLEWIGYIYYSGTTYYNPSLKSRVTISIDTSKNQFSLKLSSVTAADTAVYYCARDLFYYDSSGPRGFDPWGQGTLVTVSS VL: EIVLTQSPGTLSLSPGERATLSCRASQTVSSNYLAWYQQKPGQAPRLLIYGSSTRATGIPDRFSGSGSGTDFTLTISRLEPEDFAVYYCQQYDTSPWTFGQGTKVEIKR", "classification": "range C"}
{"binder": "41G5v2 (antibody, human IgG1, kappa, V domains shown, Engineered variant; also called Ab56; SS-13809) VH: QVQLVESGGGVVQPGRSLRLSCAASGFTFSSYGMHWVRQAPGKGLEWVAVIWYPGSNKYYAESVKGRFTISRDNSKNTLYLQMNSLRAEDTAVYYCARGGELGRYYYYGMDVWGQGTTVTVSS VL: DIQMTQSPSSLSASVGDRVTVTCRASQGIRNDLGWYQQKPGKAPKRLIYAASSLQSGVPSRFSGSGSGTEFTLTISSLQPEDFATYYCLQHNNYPWTFGQGTKVDIKR", "classification": "range A"}
{"binder": "9H6v1 (antibody, human IgG1, kappa, V domains shown, Engineered variant; also called Ab44; SS-16943) VH: QVQLVESGGGVVQPGRSLRLSCVASGFTFSSYGMHWIRQAPGKGLEWVAVIWYEGSNKYYADSVKGRFTISRDNSKNTLYLQMNSLRAEDTAVYYCARGGRLGKDYYSGMDVWGQGTTVTVSS VL: DIQMTQSPSSLSASVGDRVTITCRASQGIRNDLGWYQQKPGKAPKRLIYATSSLQSGVPSRFSGSGSGTEFTLTISSLQPEDFATYYCLQHNTYPWTFGQGTKVEIKR", "classification": "range A"}
{"binder": "7A10v2 (antibody, human IgG1, kappa, V domains shown, Engineered variant; also called Ab40; SS-16938) VH: QVQLVESGGGVVQPGRSLRLSCAASGFTFSSYGMHWVRQAPGKGLEWMAVIWYVGSNKYYADSVKGRFTISRDNSKNTLYLQMNSLRAEDTAVYYCARGGELGRDYYSGMDVWGQGTTVTVSS VL: DIQMTQSPSSLSASVGDRVTITCRASQGIRNDLGWYQQKPGKAPKLLIYAASSLQSGVPSRFSGSGSGTEFTLTISSLQPEDFATYYCQQHNSYPWTFGQGTKVEIKR", "classification": "range C"}
{"binder": "33C9v3 (antibody, human IgG1, kappa, V domains shown, Engineered variant; also called Ab52; SS-16949) VH: QVQVVESGGGVVQPGRSLRLSCAASGFTFSSYGMHWVRQAPGKGLEWVSVIWYEGSNKYYADTVKGRFTISRDNSKNTLYLQMNSLRAEDTAVYYCARGGLLGYYYYYGMDVWGQGTTVTVSS VL: DIQMTQSPSSLSASVGDRVTITCRASQGIRNDLGWYQQKPGKAPKRLIYDASSLQSGVPSRFSGSGSGTEFTLTISSLQPEDFATYYCLQHHSYPWTFGQGTKVEIKR", "classification": "range B"}
{"binder": "9H6v5 (antibody, human IgG1, kappa, V domains shown, Engineered variant; also called Ab48; SS-16946) VH: QVQLVESGGGVVQPGRSLRLSCVASGFTFSSYGMHWIRQAPGKGLEWVAVIWYEGSNKYYAESVKGRFTISRDNSKNTLYLQMNSLRAEDTAVYYCARGGRLGKDYYSGMDVWGQGTTVTVSS VL: DIQMTQSPSSLSASVGDRVTITCRASQGIRNDLGWYQQKPGKAPKLLIYATSSLQSGVPSRFSGSGSGTEFTLTISSLQPEDFATYYCLQHNTYPWTFGQGTKVEIKR", "classification": "range B"}
{"binder": "33C9v1 (antibody, human IgG1, kappa, V domains shown, Engineered variant; also called Ab50; SS-16948) VH: QVQVVESGGGVVQPGRSLRLSCAASGFTFSSYGMHWVRQAPGKGLEWVSVIWYEGSNKYYADSVKGRFTISRDNSKNTLYLQMNSLRAEDTAVYYCARGGLLGYYYYYGMDVWGQGTTVTVSS VL: DIQMTQSPSSLSASVGDRVTITCRASQGIRNDLGWYQQKPGKAPKLLIYDASSLQSGVPSRFSGSGSGTEFTLTISSLQPEDFATYYCLQHHSYPWTFGQGTKVEIKR", "classification": "range B"}

Hello team, could you let me know which band the following binder falls into: 7A10v4 (antibody, human IgG1, kappa, V domains shown, Engineered variant; also called Ab42; SS-16940) VH: QVQLVESGGGVVQPGRSLRLSCAASGFTFSSYGMHWVRQAPGKGLEWMAVIWYVGSNKYYADTVKGRFTISRDNSKNTLYLQMNSLRAEDTAVYYCARGGELGRDYYSGMDVWGQGTTVTVSS VL: DIQMTQSPSSLSASVGDRVTITCRASQGIRNDLGWYQQKPGKAPKRLIYAASSLQSGVPSRFSGSGSGTEFTLTISSLQPEDFATYYCQQHNSYPWTFGQGTKVEIKR range A

Okay, and 5H7v10 (antibody, human IgG1, kappa, V domains shown) VH: QVQLQESGPGLVKPSETLSLTCTVSGGSISSGGYFWSWIRQPPGKGLEWIGYIYYSGTTYYNPSLKSRVTISIDTSKNQFSLKLSSVTAADTAVYYCARDLFYYDSSGPRGFDPWGQGTLVTVSS VL: EIVLTQSPGTLSLSPGERATLSCRASQTVSSNYLAWYQQKPGQAPRLLIYGSSTRATGIPDRFSGSGSGTDFTLTISRLEPEDFAVYYCQQYESSPWTFGQGTKVEIKR ? range C
